# protocol_details: in vitro
# condition_info: human, hela cells, % viability
readout_type: viability at 28.5 h, 10 µM (%)
Numbers only, in %.

1. Cc1nc2sccn2c1CN1CCCC(C(=O)N2CCOCC2)C1 (stereo not shown) | 97.6
2. O=C(Nc1cccnc1)c1ccc(F)cc1Cl | 89.9
3. O=C(c1cccc2ncccc12)N1CCN(CC2CCOC2)CC1 (stereo not shown) | 94.3

Let's switch to this compound now.
[ask] State its viability at 28.5 h, 10 µM for this compound: CC(CC(=O)NC1(C#Cc2nccs2)CCCCC1)n1ccnc1 (stereo not shown)
[reply] 99.5

###

# protocol_details: in vitro
# condition_info: human, hela cells, % viability
Output criterion met for records whose viability at 28.5 h, 10 µM is lower than 90%, criterion not met for records at or above 90%.

Observe how each entry below is paired with its result.
1. NCCCCCCNC(=O)c1c(O)c2ccccc2oc1=O | criterion not met
2. COc1ccc(/C=N/NS(=O)(=O)c2ccc(C)cc2)cc1CSc1ccccn1 | criterion not met
3. CCN(C(C)COC)S(=O)(=O)c1ccc(-n2ncc(Cl)c(Cl)c2=O)cc1 (centres unmarked) | criterion met
4. COc1c(C(N)=O)c(O)c(OC)c2occc12 | criterion met

[ask] Does the reported viability at 28.5 h, 10 µM of CCCNC(=O)Cn1nc(-c2cc3c(s2)CCC3)oc1=O stay below 90%?
[reply] criterion not met

[ask] Lab log: compare recorded viability at 28.5 h, 10 µM with 90%; is it strictly lower for CC(O)(CC(=O)O)CC(=O)OCCc1ccc2c(c1)CCC2 (centres unmarked) ?
[reply] criterion not met
